- measurement_notes: etching rate (dissolution rate) of a deposited layer in the IPA/water mixed solvent
- Format: physicochemical
- experimental_parameters: layer of the compound; polar solvent: IPA/water mixed solvent, IPA 60 wt %
quantity_name: etching rate (nm/s)
Answers are plain numbers, in nm/s.

c1ccc(-n2c(-c3cc(-c4nc5ccccc5n4-c4ccccc4)cc(-c4nc5ccccc5n4-c4ccccc4)c3)nc3ccccc32)cc1 = 1.6
O=C1c2ccccc2OC2C=CC(c3cccc(-c4cccc(-c5cc(-c6cccc(-c7ccccc7)c6)cc(-c6cccc(-c7ccccc7)c6)c5)c4)c3)=CC12 (stereo not shown) = 1.5
c1ccc(-c2cc(-c3ccccc3)cc(-c3cccc(-c4cccc(-c5ccc6c7ccccc7c7ccccc7c6c5)c4)c3)c2)cc1 = 1.3
O=S(=O)(Oc1ccc2cc(-c3ccc4ccccc4c3)ccc2c1)C(F)(F)F = 2.5
CC(C)(C)c1cc2ccc3ccc(B4OC(C)(C)C(C)(C)O4)c4ccc(c1)c2c34 = 3.0
CC1(C)c2cc(-c3ccc4ccc5cccc6ccc3c4c56)ccc2-c2ccc(-c3ccc4ccc5cccc6ccc3c4c56)cc21 = 0.008

# evaluate next
Task item: Given the entry CC1(C)c2ccccc2-c2ccc(-c3ccc4ccc5ccc(-c6ccc7c(c6)C(C)(C)c6ccccc6-7)nc5c4n3)cc21 , report its measured etching rate.
Reply: 0.87
